- System: SNB-78
- PROTOCOL DESCRIPTION: NCI tumour cell line growth inhibition, 48 h
Calls of active or inactive are those of the source. Cut-off read from the data, not from the text of the source: active = GI50 up to about 1.1 µM and inactive = higher.
Outcome codes: Y = active, N = inactive

COMPOUND	ASSIGNED LABEL
O=C(/C=C/c1ccccc1)CC(=O)CCC(=O)Nc1ccc(Cl)cc1	N
C=CCN1C(=O)C(=O)N(CC=C)C(=O)C1=O	N
COc1ccc(C(=O)O/N=C2\CCCC\C2=C/c2ccccc2)cc1	N
O=C1C[C@@H]2[C@@H](C=CC23CCCC3)N1O	N
C[N+]1(CCNP(=S)(NCC[N+]2(C)Cc3c(ccc4c3OCO4)C3C2c2cc4c(cc2C[C@@H]3O)OCO4)NCC[N+]2(C)Cc3c(ccc4c3OCO4)C3C2c2cc4c(cc2C[C@@H]3O)OCO4)Cc2c(ccc3c2OCO3)C2C1c1cc3c(cc1C[C@H]2O)OCO3 (stereo not given in full)	Y
CCCC(=O)Nc1ccc(O)c2c1C1CCCCCC21 (stereo not given)	N
COc1cc2c(c(OC)c1OC)-c1ccc(SC)c(=O)cc1[C@@H](NCc1ccc(F)cc1)CC2	Y
Nc1ccc2n[se]nc2c1	N
c1ccc(OC2=NC3=S(S2)SC(Oc2ccccc2)=N3)cc1	N
Cn1c2ccccc2c2cc(-c3ccccc3)c3c(c21)C(=O)C=CC3=O	N
